Data provenance is ChEMBL document CHEMBL1201862.

Quick list: GI50 per entry.
test system: HCT-116; assay: NCI tumour cell line growth inhibition, 48 h
Activity calls are given as the source filed them. Rule as the data show it: active = GI50 up to about 1.1 µM and inactive = higher.

A selection of reference data follows.
[
  {
    "MOLECULE": "O=S(=O)(O)c1ccc(Nc2ccnc3ccccc23)cc1",
    "GI50": "> 100 µM (inactive)"
  },
  {
    "MOLECULE": "CCOC(=O)NC(=O)c1cn(CCCCCCOC(=O)NCCCCCCNC(=O)OCCCCCCn2cc(C(=O)NC(=O)OCC)c(=O)[nH]c2=O)c(=O)[nH]c1=O",
    "GI50": "> 100 µM (inactive)"
  },
  {
    "MOLECULE": "N#Cc1cccc(C2ON=C(c3ccc([N+](=O)[O-])cc3)N2C23CC4CC(CC(C4)C2)C3)c1 (centres undefined)",
    "GI50": "6.21 µM (inactive)"
  }
]

Next, consider the following molecule.
Lookup: GI50 / HCT-116 / COC1OC(C)C(OC(=O)C(C)(C)C)C(OS(=O)(=O)c2ccc(C)cc2)C1OS(=O)(=O)c1ccc(C)cc1 (centres undefined)
> 100 µM (inactive)
